tested_on: T1, ZFP SBS#1383 (synthetic)
T1 chain: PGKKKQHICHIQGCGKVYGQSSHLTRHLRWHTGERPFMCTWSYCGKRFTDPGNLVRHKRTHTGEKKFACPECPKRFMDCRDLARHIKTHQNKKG
test_name: EMSA
condition_label: tags: MBP fusion
property_label: Kd (nM)

>>> recorded_number("GCCGACGGT (dsDNA) DNA 1: GCCGACGGT DNA 2: ACCGTCGGC")
1.74

Entry source: patent US20030068675
